// values below are reported relative viability
tested on: NCI-H358; experiment: relative viability (nuclei count vs DMSO), 5 days (fraction); higher = more cells survive; settings: first compound 0.03162 µM

[
  {
    "Compound": "O=c1cc(N2CCOCC2)oc2c(-c3cccc4c3sc3ccccc34)cccc12 + CC(=O)c1c(C)c2cnc(Nc3ccc(N4CCNCC4)cn3)nc2n(C2CCCC2)c1=O [Palbociclib] (partner 0.5 µM)",
    "relative viability": 0.127
  },
  {
    "Compound": "CCN(CC)CCCCNc1ncc2cc(-c3cc(OC)cc(OC)c3)c(NC(=O)NC(C)(C)C)nc2n1 + N=C(N)NC(=N)NCCc1ccccc1 [Phenformin] (partner 250 µM)",
    "relative viability": 0.302
  },
  {
    "Compound": "O=c1cc(N2CCOCC2)oc2c(-c3cccc4c3sc3ccccc34)cccc12 + Cc1nc(NC(=O)N2CCC[C@H]2C(N)=O)sc1-c1ccnc(C(C)(C)C(F)(F)F)c1 [Alpelisib] (partner 2 µM)",
    "relative viability": 0.807
  }
]

Tell me the measured relative viability of O=c1cc(N2CCOCC2)oc2c(-c3cccc4c3sc3ccccc34)cccc12 + Nc1ncn([C@H]2C[C@H](O)[C@@H](CO)O2)c(=O)n1 [Decitabine] (partner 2 µM) , please.
0.218

relative viability for O=c1cc(N2CCOCC2)oc2c(-c3cccc4c3sc3ccccc34)cccc12 + NC(=O)Nc1cc(-c2cccc(F)c2)sc1C(=O)N[C@H]1CCCNC1 [AZD7762] (partner 0.2 µM) ?
0.517

Field request: relative viability | item: O=c1cc(N2CCOCC2)oc2c(-c3cccc4c3sc3ccccc34)cccc12 + Cc1cc(Nc2cc(N3CCN(C)CC3)nc(Sc3ccc(NC(=O)C4CC4)cc3)n2)n[nH]1 [Tozasertib] (partner 0.1 µM)
0.102

relative viability for O=c1cc(N2CCOCC2)oc2c(-c3cccc4c3sc3ccccc34)cccc12 + CCNC(=O)c1noc(-c2cc(C(C)C)c(O)cc2O)c1-c1ccc(CN2CCOCC2)cc1 [Luminespib] (partner 0.01 µM) ?
0.397

I am curious: what relative viability value has been reported for O=c1cc(N2CCOCC2)oc2c(-c3cccc4c3sc3ccccc34)cccc12 + CC(=O)Nc1cccc(-n2c(=O)n(C3CC3)c(=O)c3c(Nc4ccc(I)cc4F)n(C)c(=O)c(C)c32)c1 [Trametinib] (partner 0.02 µM) ?
0.14

---

tested on: NCI-H2009; assay: relative viability (nuclei count vs DMSO), 5 days (fraction); higher = more cells survive; conditions: first compound 0.03162 µM
Assay metric: relative viability
# output: bare number, no unit

The examples below pair each entry with its known result.
[
  {
    "Compound": "O=c1cc(N2CCOCC2)oc2c(-c3cccc4c3sc3ccccc34)cccc12 + CS(=O)(=O)N1CCN(Cc2cc3nc(-c4cccc5[nH]ncc45)nc(N4CCOCC4)c3s2)CC1 [Pictilisib] (partner 1 µM)",
    "relative viability": 0.864
  },
  {
    "Compound": "CCN(CC)CCCCNc1ncc2cc(-c3cc(OC)cc(OC)c3)c(NC(=O)NC(C)(C)C)nc2n1 + COc1cc2c(Oc3ccc(NC(=O)C4(C(=O)Nc5ccc(F)cc5)CC4)cc3F)ccnc2cc1OCCCN1CCOCC1 [Foretinib] (partner 0.25 µM)",
    "relative viability": 1.25
  },
  {
    "Compound": "O=c1cc(N2CCOCC2)oc2c(-c3cccc4c3sc3ccccc34)cccc12 + C[C@@H](Oc1cc(-c2cnn(C3CCNCC3)c2)cnc1N)c1c(Cl)ccc(F)c1Cl [Crizotinib] (partner 1 µM)",
    "relative viability": 0.921
  }
]

Kindly consider the entry below.
State its relative viability on NCI-H2009: CCN(CC)CCCCNc1ncc2cc(-c3cc(OC)cc(OC)c3)c(NC(=O)NC(C)(C)C)nc2n1 + O=C(c1cc(Cc2n[nH]c(=O)c3ccccc23)ccc1F)N1CCN(C(=O)C2CC2)CC1 [Olaparib] (partner 8 µM)
0.696

---

tested on: PC-3 [JPC-3]; assay: relative viability (nuclei count vs DMSO), 5 days (fraction); higher = more cells survive; settings: first compound 0.1 µM
Reported relative viability values are given for each entry in this list.
Give the figure by itself; no unit, no explanation.

Take a look at these entries with their results.
[
  {
    "Molecule": "CCN(CC)CCCCNc1ncc2cc(-c3cc(OC)cc(OC)c3)c(NC(=O)NC(C)(C)C)nc2n1 + CC(=O)c1c(C)c2cnc(Nc3ccc(N4CCNCC4)cn3)nc2n(C2CCCC2)c1=O [Palbociclib] (partner 0.5 µM)",
    "relative viability": 0.616
  },
  {
    "Molecule": "O=c1cc(N2CCOCC2)oc2c(-c3cccc4c3sc3ccccc34)cccc12 + C[C@]1(O)C[C@@H](c2nc(-c3ccc4ccc(-c5ccccc5)nc4c3)c3c(N)nccn32)C1 [Linsitinib] (partner 1 µM)",
    "relative viability": 0.943
  },
  {
    "Molecule": "O=c1cc(N2CCOCC2)oc2c(-c3cccc4c3sc3ccccc34)cccc12 + CC(=O)Nc1cccc(-n2c(=O)n(C3CC3)c(=O)c3c(Nc4ccc(I)cc4F)n(C)c(=O)c(C)c32)c1 [Trametinib] (partner 0.02 µM)",
    "relative viability": 0.649
  }
]

Field request: relative viability | item: CCN(CC)CCCCNc1ncc2cc(-c3cc(OC)cc(OC)c3)c(NC(=O)NC(C)(C)C)nc2n1 + COc1cc2c(Oc3ccc(NC(=O)C4(C(=O)Nc5ccc(F)cc5)CC4)cc3F)ccnc2cc1OCCCN1CCOCC1 [Foretinib] (partner 0.25 µM)
1.13

---

test system: LCLC-97TM1; assay: relative viability (nuclei count vs DMSO), 5 days (fraction); higher = more cells survive; conditions: first compound 8 µM
With a cut-off of 0.4, any relative viability strictly below it is called label 1; any relative viability meeting it or above is called label 0.

[
  {
    "Compound": "O=c1cc(-c2cccc3c2Sc2ccccc2S3)oc(N2CCOCC2)c1 + CC(=O)c1c(C)c2cnc(Nc3ccc(N4CCNCC4)cn3)nc2n(C2CCCC2)c1=O [Palbociclib] (partner 0.5 µM)",
    "Class assignment": "label 1"
  },
  {
    "Compound": "O=c1cc(-c2cccc3c2Sc2ccccc2S3)oc(N2CCOCC2)c1 + N=C(N)NC(=N)NCCc1ccccc1 [Phenformin] (partner 250 µM)",
    "Class assignment": "label 0"
  },
  {
    "Compound": "O=c1cc(-c2cccc3c2Sc2ccccc2S3)oc(N2CCOCC2)c1 + Cc1nc(NC(=O)N2CCC[C@H]2C(N)=O)sc1-c1ccnc(C(C)(C)C(F)(F)F)c1 [Alpelisib] (partner 2 µM)",
    "Class assignment": "label 1"
  },
  {
    "Compound": "O=c1cc(-c2cccc3c2Sc2ccccc2S3)oc(N2CCOCC2)c1 + O=C(c1cc(Cc2n[nH]c(=O)c3ccccc23)ccc1F)N1CCN(C(=O)C2CC2)CC1 [Olaparib] (partner 8 µM)",
    "Class assignment": "label 1"
  }
]

Next item in the queue.
Please indicate whether the reported relative viability of O=c1cc(-c2cccc3c2Sc2ccccc2S3)oc(N2CCOCC2)c1 + O=C(CCCCCCC(=O)Nc1ccccc1)NO [Vorinostat] (partner 1 µM) is strictly below 0.4.
label 0

---

# key: entry, value: relative viability
tested on: NCI-H460; assay: relative viability (nuclei count vs DMSO), 5 days (fraction); higher = more cells survive; conditions: first compound 0.3162 µM
Just the number, please, no unit attached.

Sample O=c1cc(N2CCOCC2)oc2c(-c3cccc4c3sc3ccccc34)cccc12 + COc1cccc2cc(-c3nc([C@H]4CC[C@H](C(=O)O)CC4)n4ncnc(N)c34)[nH]c12 [OSI-027] (partner 0.5 µM) — what was its relative viability?
0.68

// relative viability lookup, key: O=c1cc(N2CCOCC2)oc2c(-c3cccc4c3sc3ccccc34)cccc12 + CC(=O)c1c(C)c2cnc(Nc3ccc(N4CCNCC4)cn3)nc2n(C2CCCC2)c1=O [Palbociclib] (partner 0.5 µM)
0.215

Which relative viability is listed for CCN(CC)CCCCNc1ncc2cc(-c3cc(OC)cc(OC)c3)c(NC(=O)NC(C)(C)C)nc2n1 + CS(=O)(=O)CCNCc1ccc(-c2ccc3ncnc(Nc4ccc(OCc5cccc(F)c5)c(Cl)c4)c3c2)o1 [Lapatinib] (partner 2 µM) ?
1.53

For the molecule shown here, CCN(CC)CCCCNc1ncc2cc(-c3cc(OC)cc(OC)c3)c(NC(=O)NC(C)(C)C)nc2n1 + COc1cc2c(Oc3ccc(NC(=O)C4(C(=O)Nc5ccc(F)cc5)CC4)cc3F)ccnc2cc1OCCCN1CCOCC1 [Foretinib] (partner 0.25 µM) , give the reported relative viability.
1.04

May I ask what relative viability has been recorded for CCN(CC)CCCCNc1ncc2cc(-c3cc(OC)cc(OC)c3)c(NC(=O)NC(C)(C)C)nc2n1 + N=C(N)NC(=N)NCCc1ccccc1 [Phenformin] (partner 250 µM) ?
0.68
